// reported growth per item
Tested on: SK-OV-3 ovarian
ASSAY REMARKS: NCI-60 one-dose screen, 48 h (100 = growth as untreated, 0 = no growth, -100 = all killed)
ASSAY CONTEXT: 10 µM
About 83,000 compounds went through this panel and 20% of them were active in at least one assay; those are over-represented in the sample as a whole.
The response must be a number in % with no trailing unit.

Would you please look over these solved cases?
1. Nc1ccc(Sc2ccc3c4c2cccc4c(=O)n2c4ccccc4nc32)cc1; 53.9
2. COc1ccc(NC(=O)c2sc3nc4c(cc3c2N)C(O)CCC4)cc1 (stereo not drawn); 112
3. CCCn1c(=O)c2c(nc(-c3cccc(OCCCCl)c3)n2C)n(CCC)c1=O; 7.41
4. Fc1cc(-c2ncc(-c3cc(F)c(F)c(F)c3)c(NC3CCCCCC3)n2)cc(F)c1F; 115
5. CC1(C)CNC(=O)N1; 95.6

**Q:** Report growth for `[O-]c1c[n+](-c2ccc(Cl)cc2)no1` tested on SK-OV-3 ovarian.
**A:** 105

====

Tested on: OVCAR-5 ovarian
ASSAY REMARKS: NCI-60 one-dose screen, 48 h
ASSAY CONTEXT: 10 µM
Compounds without any hit were thinned out: in the full panel of roughly 83,000, 20% have a hit. Calls of active or inactive are those of the source. How the source made its calls: active means growth percent below 10; inactive means the rest.
Hello, when you answer, please use one of the following outcomes: active, inactive

Use the examples below as a reference point.
1. CCSc1nc2c([nH]1)c(=O)n(C)c(=S)n2C; inactive
2. O=C(N/N=C\c1cc(Cl)ccc1O)c1ccncc1; inactive
3. CCCCCCCOc1cccc(/C=C2/C(=O)N=C3SCCCN32)c1; inactive

**Q:** Which outcome was entered for the compound `Fc1ccc(-c2cc(C(Cl)Cl)no2)cc1` in this test?
**A:** inactive

**Q:** Which outcome was entered for the compound `CNC(=O)c1cc(Oc2ccc(NC(=O)Nc3ccc(Cl)c(C(C)(C)C)c3)c(F)c2)ccn1` in this test?
**A:** inactive

**Q:** Which outcome was entered for the compound `COc1cc(CSc2nc3ccc(C)cc3c(=O)n2-c2ccccc2)cc(OC)c1OC` in this test?
**A:** inactive

**Q:** Which outcome was entered for the compound `Cc1cc(Cl)ccc1Nc1nc(C(F)(F)F)ccc1C(=O)N/N=C/c1ccccc1Cl` in this test?
**A:** inactive

**Q:** Which outcome was entered for the compound `Brc1ccc(-c2cn3ccnc3c(-c3ccc(Br)cc3)n2)cc1` in this test?
**A:** inactive

**Q:** Which outcome was entered for the compound `Cc1cc(/C=C2\SC(=Nc3ccccc3)N(C3CCCC3)C2=O)c(C)n1-c1ccc(Cl)cc1` in this test?
**A:** active

**Q:** Which outcome was entered for the compound `Cc1cn(C(=O)/C(Cl)=C(/Cl)C(=O)O)c2ccccc12` in this test?
**A:** inactive

====

Tested on: SN12C renal
ASSAY REMARKS: NCI-60 one-dose screen, 48 h (100 = growth as untreated, 0 = no growth, -100 = all killed)
ASSAY CONTEXT: 10 µM
Compounds without any hit were thinned out: in the full panel of roughly 83,000, 20% have a hit.
// reported growth per item
The response must be a number in % with no trailing unit.

Would you please look over these solved cases?
1) CC(C)OCc1cc(CN2CCN(c3cccc(Cl)c3)CC2)c(O)c2ncccc12; -4.06
2) N#CCC1CCCC1; 94
3) Cc1nc2scc(-c3ccc(Cl)cc3)n2c(=O)c1CCN1CCOCC1; 94
4) C#Cc1ccc(-n2c(/C=C/c3cc(OC)c(OC)c(OC)c3)nc3ncccc3c2=O)cc1; 82.1
5) Cc1nc2sccn2c1-c1csc(Nc2cccc(Cl)c2C)n1; 59.4
6) CN1CCN(c2nc(-c3cccnc3)nc3sc4c(c23)CCCCCC4)CC1; 90.8
7) CCOC(=O)c1ccc(NC(=O)Nc2nncs2)cc1; 31.2
8) CCCc1c(CC)c(=N)c2ccccc2n1C; 72.5

Pending molecule:
**Q:** Given the entry Cc1cc(=O)oc2cc(OCc3cn(CC(O)CO)nn3)ccc12 (centres undefined) , report its measured growth.
**A:** 102

====

Test system: NCI-H226 lung
ASSAY REMARKS: NCI-60 one-dose screen, 48 h (100 = growth as untreated, 0 = no growth, -100 = all killed)
ASSAY CONTEXT: 10 µM
Compounds without any hit were thinned out: in the full panel of roughly 83,000, 20% have a hit.
REPORTED PROPERTY: growth (%)
The response must be a number in % with no trailing unit.

Would you please look over these solved cases?
1. Nc1nc(SCC#CCCl)c2[nH]cnc2n1; 65.1
2. C#CCn1c(-c2cccc(OCCCCl)c2)nc2c1c(=O)n(C)c(=O)n2C; 62.5
3. CCCCCCCC/C=C/CCCCCCCCC1=NCCN1CCO; 86.9
4. COc1ccc(-c2nc(-c3nc4ccc(C)cc4[nH]3)c3ccccn23)cc1; 57.9
5. COC(=O)CCCCCCCCC(C)c1ccc(C(C)=O)cc1 (stereo unspecified); 104

**Q:** Given the entry `COc1cc(-c2cc(-c3cc(OC)c(OC)c(OC)c3)nc3nc(N)[nH]c(=O)c23)ccc1Oc1ccnc2cc(Cl)ccc12` , report its measured growth.
**A:** 76

**Q:** Given the entry `Nc1ncncc1-c1ccc(F)cc1` , report its measured growth.
**A:** 108

**Q:** Given the entry COc1cc(C2C=C(c3ccc(Cl)cc3)N=C3SC(C)=CN32)cc(OC)c1OC (stereo unspecified) , report its measured growth.
**A:** 96.9

**Q:** Given the entry `COc1ccc(-c2cn[nH]c2-c2cc(OC)c(OC)c(OC)c2)cc1` , report its measured growth.
**A:** 56.7

**Q:** Given the entry `O=C(Nc1ccc(Oc2ccc(Nc3nc4ccccc4s3)cc2)cc1)Nc1ccc(Cl)c(Cl)c1` , report its measured growth.
**A:** 46.5

**Q:** Given the entry COc1ccc(C2C=C(c3ccc(Cl)c(Cl)c3)N=C3SC(C)=CN32)cc1OC (stereo unspecified) , report its measured growth.
**A:** 79.7

====

System: SW-620 colon
ASSAY REMARKS: NCI-60 one-dose screen, 48 h
ASSAY CONTEXT: 10 µM
This is part of a sample that, as a whole, favours compounds with a hit. Of some 83,000 tested, about 20% had one in any assay. Calls of active or inactive are those of the source. How the source made its calls: active means growth percent below 10; inactive means the rest.
Hello, when you answer, please use one of the following outcomes: active, inactive

Use the examples below as a reference point.
1. COC1OC2COC(c3ccccc3)OC2C(=O)C1NC(=O)c1ccccc1 (stereo not given); inactive
2. CCOC(=S)Sc1ccc([N+](=O)[O-])cc1[N+](=O)[O-]; inactive
3. C[C@]12CC[C@H]3[C@@H](CCC4=CC(=O)CC[C@@]43C)[C@@H]1CC[C@@H]2c1csc(N)n1; inactive
4. CN(C)CCCN1c2ccccc2Sc2ccc(C(F)(F)F)cc21; active
5. Cc1cc(/C=C2\SC(=Nc3ccccc3)N(C3CCCC3)C2=O)c(C)n1-c1ccc(Cl)cc1; active

**Q:** Which outcome was entered for the molecule `COC(=O)[C@]12CC[C@@H](C)[C@H](C)[C@@H]1C1=CC[C@@H]3[C@@]4(C)CC(=O)[C@H](O)[C@@]5(C)COC(=C45)C[C@@]3(C)[C@]1(C)CC2` in this test?
**A:** active

**Q:** Which outcome was entered for the molecule `Oc1ccc(Cn2cc3c(c2-c2ccccc2)CCc2cnoc2-3)cc1` in this test?
**A:** inactive

**Q:** Which outcome was entered for the molecule COc1nc2c(c(=O)[nH]1)C(c1ccc(Oc3ccnc4cc(Cl)ccc34)c(OC)c1)C=C(c1cc(OC)c(OC)c(OC)c1)N2 (stereo not given) in this test?
**A:** inactive

**Q:** Which outcome was entered for the molecule `COc1cc([C@@H]2c3cc4c(cc3[C@H](SC(=N)N)[C@H]3COC(=O)[C@H]23)OCO4)cc(OC)c1OC` in this test?
**A:** inactive

====

Test system: MDA-MB-435 melanoma
ASSAY REMARKS: NCI-60 one-dose screen, 48 h (100 = growth as untreated, 0 = no growth, -100 = all killed)
ASSAY CONTEXT: 10 µM
This is part of a sample that, as a whole, favours compounds with a hit. Of some 83,000 tested, about 20% had one in any assay.
T means recorded growth is 90% or above; F means it is below 90%.

1) O=[N+]([O-])c1ccc2c(c1)Cc1cc(I)ccc1-2; T
2) Nc1ncncc1-c1ccc(F)cc1; T
3) O=C1/C(=C/c2cccs2)CCC/C1=C\c1cccs1; F

**Q:** Is growth at least 90%? Consider `COc1ccc(-c2cc(=O)n(-c3nc4ccccc4[nH]3)[nH]2)cc1OC`
**A:** F
